These entries and their values trace back to paper PMC5638086.

Molecular target: T1, α‐FXIIa (Homo sapiens, UniProt P00748)
T1 construct: purchased Enzyme Research Laboratories (Swansea, UK)
T1 sequence (P00748 373-615 limits assumed): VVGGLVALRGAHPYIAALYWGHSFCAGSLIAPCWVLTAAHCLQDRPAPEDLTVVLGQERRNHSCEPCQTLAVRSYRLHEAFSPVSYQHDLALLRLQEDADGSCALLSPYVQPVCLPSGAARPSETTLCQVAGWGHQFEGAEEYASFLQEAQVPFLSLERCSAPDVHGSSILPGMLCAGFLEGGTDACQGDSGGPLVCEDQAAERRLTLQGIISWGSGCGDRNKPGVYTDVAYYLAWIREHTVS
T1 sequence (P00748 20-372 partner limits assumed): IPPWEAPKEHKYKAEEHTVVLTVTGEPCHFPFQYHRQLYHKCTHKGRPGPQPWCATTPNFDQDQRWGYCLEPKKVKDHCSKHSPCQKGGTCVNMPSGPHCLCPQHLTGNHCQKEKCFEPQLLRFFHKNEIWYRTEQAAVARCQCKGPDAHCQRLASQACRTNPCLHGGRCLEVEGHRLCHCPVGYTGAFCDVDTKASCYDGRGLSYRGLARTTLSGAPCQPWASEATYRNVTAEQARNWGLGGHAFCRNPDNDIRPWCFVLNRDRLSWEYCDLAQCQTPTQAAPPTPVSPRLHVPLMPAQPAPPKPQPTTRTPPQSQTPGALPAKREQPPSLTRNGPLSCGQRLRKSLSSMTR
Assay: α‐FXIIa enzymatic assay (S‐2302 chromogenic substrate cleavage, pNA release)
Assay type: biochemical
Settings: CTI variant proteins 10^−8 M to 10^−5 M, 200 μM S‐2302, 10 nM α‐FXIIa, 33 °C, initial rate of first 30 min, A405; SE of the fit, n = 3–5 independent experiments; SEM
Reported pIC50 ± SE values follow for various molecules
Lab note: record just the number, no unit beside it.

Kindly note the recorded pIC50 ± SE for R42A/R43A: rec‐CTI R42A/R43A double mutant (protein, assayed as His6-GST fusion (tag omitted); disulfides) SAGTSCVPGWAIPHNPLPSCRWYVTSRTCGIGPRLPWPELKAACCRELADIPAYCRCTALSILMDGAIPPGPDAQLEGRLEDLPGCPREVQRGFAATLVTEAECNLATISGVAECPWILGGGTMPSK , which is 4.98

Lab note: commercial corn trypsin inhibitor (CTI) (natural protein) SAGTSCVPGWAIPHNPLPSCRWYVTSRTCGIGPRLPWPELKRRCCRELADIPAYCRCTALSILMDGAIPPGPDAQLEGRLEDLPGCPREVQRGFAATLVTEAECNLATIS gave pIC50 ± SE of 6.97
